# test_summary: blockers of RIG-like receptor reporter activation – cell-based, Sendai virus stimulus, luciferase, 10K MLSCN set, TLR/RLR signaling modifier project, primary screen (AID 602276);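 note: firefly luciferase from ISG56 promoter only with Renilla not read in this screen; 0% = Sendai virus plus DMSO and 100% = medium plus DMSO without virus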
# study_conditions: HEK293 RL24 IRF3 luciferase reporter, at 10 µM, stronger effect = higher value
Label T when inhibition is at or above 10%; anything below gets F.

IN: Identify whether the reported inhibition of the following compound is 10% or greater: C=CCC(NCc1ccco1)c1ccc(OC)cc1OC (stereo unspecified)
OUT: T

IN: Another compound: `Cc1ccccc1CSCC(=O)c1c(N)n(C)c(=O)n(C)c1=O`
OUT: F

IN: Another compound: `COc1ccc(-n2c(SCCC(=O)O)nnc2-c2ccncc2)cc1`
OUT: T

IN: Another compound: `COc1cccc(-n2c(SCC(=O)OC(C)C)nnc2-c2cccnc2)c1`
OUT: F

IN: Another compound: `Cn1c(=O)c(-c2ccccc2)nn2c3ccccc3nc12`
OUT: T

IN: Another compound: `CCOC(=O)c1ccccc1NC(=O)CSc1nc2c(c(=O)n(C)c(=O)n2C)n1C`
OUT: T

###

# maps each entry to its inhibition
# test_summary: inhibitors of TNFa-induced NFkB p65 translocation, primary screen, imaging, HUVEC, MLSMR starter and 10KST1 sets (AID 438);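 note: compound added about 3h40 before a 20 min TNFalpha stimulation; signal is the nuclear over cytoplasmic p65 intensity ratio per well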
# study_conditions: HUVEC TNFa-induced p65 nuclear translocation; at 2 µM, stronger effect = higher value, 0% TNFa-plus-vehicle, 100% no-TNFa wells
State the answer as a number, implicitly in %.

Cc1n[nH]c(C)c1S(=O)(=O)Nc1ccc2c(c1)OCCO2 | 8.9
O=C(Nc1nccs1)c1ccc(Cl)c(S(=O)(=O)N2CCCCC2)c1 | 1.3
COc1ccccc1-n1cnnc1SCC(=O)c1ccc[nH]1 | 6.1
Cn1c2ccccc2c2c(C(=O)NCCCN3CCCC3=O)cn(C3CCCCC3)c(=O)c21 | -17.5
Cn1nnnc1SCC(=O)Nc1ccccc1C(=O)NCc1ccccc1 | 7.2
O=C(NC1CCCC1)c1cc(-c2cccs2)on1 | -5.1
CCc1c(C)nc(N2CCN(Cc3ccccc3)CC2)[nH]c1=O | -17.8
Cc1ccc(S(=O)(=O)N(C)CC(=O)NC2CCCC2)cc1 | 10.1

IN: State the recorded inhibition for this entry: `COc1ccc(N(CC(=O)N2CCN(Cc3ccc4c(c3)OCO4)CC2)S(C)(=O)=O)cc1OC`
OUT: 5

IN: Another molecule: `CCCN(CCC)S(=O)(=O)c1ccc(C(=O)Nc2nnc(-c3cccc(OC)c3)o2)cc1`
OUT: 1.4

IN: Another molecule: `COC(=O)CCN1CCC(C(N)=O)CC1`
OUT: -6.3

###

# test_summary: inhibitors of TNFa-induced NFkB p65 translocation, primary screen, imaging, HUVEC, MLSMR starter and 10KST1 sets (AID 438);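 note: compound added about 3h40 before a 20 min TNFalpha stimulation; signal is the nuclear over cytoplasmic p65 intensity ratio per well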
# study_conditions: HUVEC TNFa-induced p65 nuclear translocation; at 2 µM, stronger effect = higher value, 0% TNFa-plus-vehicle, 100% no-TNFa wells
# maps each entry to its inhibition
State the answer as a number, implicitly in %.

Below are worked cases with known answers.
CCOC(=O)c1sc2nc3c(cc2c1N)COC(C)(C)C3 | -5.9
CC1CN(S(=O)(=O)c2cccc(C(=O)OCc3cc(=O)oc4cc(O)ccc34)c2)CC(C)O1 (stereo not drawn) | -2.9
Cc1cccc(-n2c(N)c(C(=O)N3CCN(C)CC3)sc2=S)c1 | 0.5
Cc1nn(-c2ccccc2)c(C)c1C(=O)OCC(=O)c1c(N)n(CC(C)C)c(=O)n(C)c1=O | 4.2
CCOc1ccc(N(CC(=O)NCC2CCCO2)S(=O)(=O)c2ccc(OC)c(OC)c2)cc1 (stereo not drawn) | 3.5

IN: State the recorded inhibition for this entry: `CSc1nc(N2CCOCC2)c2c(c1C#N)CCCCC2`
OUT: -11.9

IN: Another compound: `CCOCCCNC(=O)CCNS(=O)(=O)c1ccc(C)cc1`
OUT: -15

IN: Another compound: `CCOC(=O)CN1C2=NCCN2c2ccccc21`
OUT: 3.8

IN: Another compound: `CCOC(=O)CSc1nc2ccccc2c(=O)n1NC(=O)c1ccccc1`
OUT: -5.7

IN: Another compound: `O=C(/C=N/O)Nc1cccnc1`
OUT: -10.2

IN: Another compound: `CCOC(=O)CNS(=O)(=O)c1c(C)noc1C`
OUT: -2.5

IN: Another compound: CCCS(=O)(=O)N1CCCC(C(=O)N2CCC(Cc3ccccc3)CC2)C1 (stereo not drawn)
OUT: -11.9

IN: Another compound: Cc1ccc(-c2nnn(CC(=O)N(CC(=O)NCC3CCCO3)c3ccccc3)n2)o1 (stereo not drawn)
OUT: -3.6

IN: Another compound: `Cn1c(CN2CCOCC2)nc2cc(NC(=O)c3ccccc3Cl)ccc21`
OUT: 7.9

###

# test_summary: reduction of polyQ htt aggregates in cells – imaging, exon1htt(103Q)mCFP cells, high-content imaging, primary screen (AID 483);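 note: compound exposure lasted 3 days before fixation; percent of the per-plate median nuclei count of sample wells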
# study_conditions: exon1htt(103Q)mCFP cell line, aggregate imaging, at 2 µM; measured here: cell count, toxicity
# maps each entry to its nuclei count

Below are worked cases with known answers.
CC(C)(C)NC(=O)C(c1ccco1)N(C(=O)Cn1nnc(-c2ccc(F)cc2)n1)c1ccccc1 (stereo not given) | 99.8%
Cc1ccc(C2C(C#N)=C(N)Oc3cc4c(cc32)OCO4)cc1 (stereo not given) | 69.9%
CC(C)[C@H](NC(=O)OC(C)(C)C)c1nnc(S(=O)(=O)Cc2c(F)cccc2Cl)o1 | 89.7%
C=CCN1C(=O)/C(=C2\SC(N3CCOCC3)=NC2=O)c2cc(Br)ccc21 | 100%

Proceeding to the next molecule to report its nuclei count.
IN: State the recorded nuclei count for this entry: C=CCOc1ccc(C2C(C(=O)c3ccco3)=C(O)C(=O)N2Cc2cccnc2)cc1 (stereo not given)
OUT: 107%

###

# assay_target: Muscarinic acetylcholine receptor M4 (Homo sapiens)
# test_summary: M4-linked GIRK flux change, two-sided – cell-based, HEK293 M4/GIRK, thallium flux, BTC-AM, M4 allosteric agonist project, primary screen (AID 625);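 note: thallium influx through GIRK channels coupled to M4 in HEK293 cells with BTC-AM dye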
# study_conditions: at 10 µM, actives lie on both sides
Where a SMILES comes first, the peptide text is derived from it. The star is where a group is joined. Boc = CC(C)(C)OC(=O)*
# label = YES if fluorescence slope < 0.005 else NO

A selection of reference data follows.
Cc1csc(NC(=O)c2cccc(S(=O)(=O)N3CCCCC3)c2)n1 | NO
c1ccc2c(c1)ccc1nnc(-c3ccc4c(c3)OCO4)n12 | NO
Cc1ccc(-c2cc(C(F)F)nc(NCc3cccnc3)n2)cc1 | NO
Cc1nc2ccccc2c2oc(C(=O)NCc3ccccn3)cc12 | NO
CC(C)CC(NC(=O)OC(C)(C)C)C(=O)NC(C(=O)NC(C)C(N)=O)C(C)C (stereo not drawn) (Boc-Leu-Val-Ala-NH2; configuration not given here) | NO
Cc1ccc(C(=O)NC2CC3CCCC(C2)N3C(=O)NC2CCCCC2)cc1 (stereo not given) | YES
CCOc1ccc(NC(=O)CN2CCN(CC(=O)Nc3ccc(F)c(F)c3)CC2)cc1 | NO
CCC(=O)N(Cc1cc2c(C)ccc(C)c2[nH]c1=O)C1CCCCC1 | NO

IN: Say whether its fluorescence slope is strictly beneath 0.005. Entry: CC(C(=O)N1CC2(C)CC1CC(C)(C)C2)N1C(=O)c2ccccc2C1=O (stereo not given)
OUT: YES

IN: Another compound: CC(Oc1ccccc1)C(=O)N1CCCc2ccccc21 (stereo not given)
OUT: NO

IN: Another compound: C/C(CC(O)(/C=N/O)c1ccccc1)=N\O (stereo not given)
OUT: YES

IN: Another compound: `COc1ccc(CNc2nc3nc(C)cc(C)n3n2)cc1OC`
OUT: YES

###

# assay_target: Voltage-gated potassium channel subunit beta-2 (Rattus norvegicus)
# test_summary: inhibitors of rat Kvbeta2 reductase activity – biochemical, NADPH fluorescence, primary screen (AID 622);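 note: slope of raw intensity against log time taken from 70 to 1610 s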
# study_conditions: recombinant KvBeta, 4-cyanobenzaldehyde reduction, at 10 µM, stronger effect = higher value
Label True when fluorescence slope is at or above -0.5; anything below gets False.

A selection of reference data follows.
CCOC(=O)C1CCN(C(=O)c2ccc(OC)cc2OC)CC1 | False
CC(C)Cn1c(=O)c(C(=O)NCc2ccccn2)c(O)c2ccccc21 | True
CCOCC(=O)Nc1nc2ccc(OC)cc2s1 | False
CC(C)OC(=O)CSc1nnc(Cc2ccccc2)n1Cc1ccco1 | True
c1c2c(cc3sc(N4CCCCC4)nc13)OCCO2 | False
O=c1oc(-c2ccco2)nc2ccccc12 | False
O=C(CCn1nc(-c2ccccc2)ccc1=O)N1CCCC1 | False
O=C(NCc1cccnc1)c1ccccc1Br | False
Cc1ccc(-c2nnn(CC(=O)N(CC(=O)NCC3CCCO3)c3ccccc3)n2)o1 (centres undefined) | False
CCCN(CCC)C(=O)CSc1nc2ccccc2c(=O)n1C1CCCC1 | True

IN: Identify whether the reported fluorescence slope of the following compound is -0.5 or greater: `Cc1cccc(OCC(=O)Nc2ccccc2N2CCN(C(=O)C(C)C)CC2)c1C`
OUT: False

IN: Another compound: `COC(=O)Cc1c(C)nc2nc(-c3ccccc3)[nH]n2c1=O`
OUT: True

IN: Another compound: CC(NC(=O)OCc1ccccc1)C(=O)N1CC(O)CC1C(=O)O (centres undefined)
OUT: False
